Data origin, for the record: a melting point compilation (Tetko et al.; mined from patent text by program, amines drawn as free bases though some values may be those of a salt)

The following compounds are shown together with reported melting point values.

Answered cases to consult:
[
  {
    "compound": "CCOc1cccc2c1c(=O)n(C)c1c(-c3noc(C4CC4)n3)ncn21",
    "measured metric": "melting point",
    "result": "195 to 205 °C"
  },
  {
    "compound": "COc1ccc(N2CCN(c3ccc(N(C)C4=NC(C)(C)CS4)cc3)CC2)cc1",
    "measured metric": "melting point",
    "result": "167 °C"
  },
  {
    "compound": "CCCCCn1c2ccccc2c2cc(C(=O)N3CCOCC3)ccc21",
    "measured metric": "melting point",
    "result": "99 to 101 °C"
  },
  {
    "compound": "NC(c1ccccc1)C12CC(CN1)C2 (stereo not given)",
    "measured metric": "melting point",
    "result": "46.5 to 47 °C"
  },
  {
    "compound": "CCCCn1c(=O)cc(-c2ccc(NCCO)cc2)[nH]c1=O",
    "measured metric": "melting point",
    "result": "207 to 208 °C"
  }
]

Data request: // lookup melting point for CSc1ccc(C(CC2CCCO2)C(=O)O)cc1Cl (stereo not given)
Data returned: 93 to 96 °C

Data request: // lookup melting point for COC(=O)C1=C(C)NC(C)=C(C(=O)OCCN2CCN(c3cccc(Cl)c3)CC2)C1c1cccc([N+](=O)[O-])c1 (stereo not given)
Data returned: 65 to 68 °C

----------
measured metric: melting point

[
  {
    "molecule": "OC1CSC(Oc2cccnc2)C(O)C1O (centres undefined)",
    "melting point": "216 °C"
  },
  {
    "molecule": "Cn1c(=O)n(CCCC(NS(=O)(=O)c2ccc(-c3ccc(Cl)cc3)cc2)C(=O)O)c(=O)c2ccccc21 (centres undefined)",
    "melting point": "188 to 191 °C"
  },
  {
    "molecule": "CCOP(=O)(CCNC1CCN(S(=O)(=O)c2ccc(Nc3nccc(Nc4ccc(F)cc4)n3)cc2)CC1)OCC",
    "melting point": "195 °C"
  },
  {
    "molecule": "O=C(Cc1ccc(Cl)c(Cl)c1)NCc1ccc2c(c1)CN(C1CCC(=O)NC1=O)C2=O (centres undefined)",
    "melting point": "191 to 193 °C"
  },
  {
    "molecule": "CCc1c(CC(=O)O)c(C)nc(C)c1Cc1nc2c(F)c(F)cc(F)c2s1",
    "melting point": "193 to 195 °C"
  }
]

Data request: // lookup melting point for N#Cc1cccnc1NCc1nc2ccc(F)cc2c(=O)n1-c1ccccc1Cl
Data returned: 145 to 150 °C

Data request: // lookup melting point for CCCCCCOc1cccc(C[C@H](NC(=O)c2coc(NS(C)(=O)=O)n2)[C@H](O)CNCc2cccc(CC)c2)c1
Data returned: 85 to 90 °C

Data request: // lookup melting point for O=C(C1=NC=CC(Br)(C(=O)Nc2ccccc2)C1)c1ccccc1 (centres undefined)
Data returned: 137 to 138 °C

Data request: // lookup melting point for Cn1ncnc1COc1nn2c(-c3ccc(F)cc3F)nncc2c1C(C)(C)C
Data returned: 118 °C

----------
The following compounds are shown together with reported melting point values.

[
  {
    "compound": "COc1ccc(S(=O)(=O)NCc2ccc(O)cc2)cc1",
    "result": "161 to 162 °C"
  },
  {
    "compound": "CCC1CC(=S)N(c2ccc3oc(=O)c(N4C(=O)C(CC)CC4=S)cc3c2)C1=O (stereo not given)",
    "result": "128 to 131 °C"
  },
  {
    "compound": "CNC(=S)SCCC(=O)O",
    "result": "86 to 87 °C"
  }
]

Data request: // lookup melting point for Cc1ccc(Sc2c(SCc3ccccc3)cc(C(=O)O)cc2S(N)(=O)=O)cc1
Data returned: 250 to 251 °C

Data request: // lookup melting point for CCCc1ccccc1OCCCOc1cccc(OC(=CC(=O)O)C(=O)O)c1CC
Data returned: 104 to 105 °C

Data request: // lookup melting point for Cc1cc(N2N=CCNC2=O)cc(Cl)c1Sc1nccn1C
Data returned: 173 to 174 °C
